Assay: Biodistribution in Jurkat tumor-bearing CB-17 SCID mice
Format: in vivo
Set-up: reference not given here
Settings: CB-17 SCID, mouse, in vivo, iv, total radioactivity
Non-standard residues stand in square brackets, D forms with d. Residues, ends and D or L forms follow the SMILES beside them. Groups on a side chain read outwards from the residue. *: point of attachment. DOTA = O=C(O)CN1CCN(CC(=O)O)CCN(CC(=O)*)CCN(CC(=O)O)CC1; dTyr(3-I) = N[C@H](Cc1ccc(O)c(I)c1)C(=O)O; 2Nal = N[C@@H](Cc1ccc2ccccc2c1)C(=O)O; dNMeOrn = CN[C@H](CCCN)C(=O)O; 4Abz = Nc1ccc(C(=O)O)cc1; dDap = NC[C@@H](N)C(=O)O
For each entry below, report its tissue to tissue ratio at 48 h value.

- MOLECULE: "C[C@@H](NC(=O)[C@@H](CCCNC(=N)N)NC(=O)[C@@H](CN)NC(=O)CN1CCN(CC(=O)O)CCN(CC(=O)O)CCN(CC(=O)O)CC1)C(=O)Nc1ccc(C(=O)NCCC[C@@H]2C(=O)N[C@@H](CCCNC(=N)N)C(=O)N[C@@H](Cc3ccc4ccccc4c3)C(=O)NCC(=O)N[C@H](Cc3ccc(O)c(I)c3)C(=O)N2C)cc1 [CXCR4-DOTA-4 [Lu]] (cyclo([dTyr(3-I)][dNMeOrn]([4Abz-dA-dR-dDap-DOTA])R[2Nal]G))"
  tissue to tissue ratio at 48 h: 362

Could you now look at the following molecule, please?
Recorded tissue to tissue ratio at 48 h of C[C@@H](NC(=O)[C@@H](CCCNC(=N)N)NC(=O)[C@@H](CN)NC(=O)CN1CCN(CC(=O)O)CCN(CC(=O)O)CCN(CC(=O)O)CC1)C(=O)Nc1ccc(C(=O)NCCC[C@@H]2C(=O)N[C@@H](CCCNC(=N)N)C(=O)N[C@@H](Cc3ccc4ccccc4c3)C(=O)NCC(=O)N[C@H](Cc3ccc(O)cc3)C(=O)N2C)cc1 [CXCR4-DOTA-3 [Lu]] (cyclo([dY][dNMeOrn]([4Abz-dA-dR-dDap-DOTA])R[2Nal]G)) , please.
1360
